- assayed-target: T1, huIgG1 huCLL1 (human, UniProt Q5QGZ9 65-265, limits assumed)
- T1 construct: not shown: human IgG1 part
- T1 sequence: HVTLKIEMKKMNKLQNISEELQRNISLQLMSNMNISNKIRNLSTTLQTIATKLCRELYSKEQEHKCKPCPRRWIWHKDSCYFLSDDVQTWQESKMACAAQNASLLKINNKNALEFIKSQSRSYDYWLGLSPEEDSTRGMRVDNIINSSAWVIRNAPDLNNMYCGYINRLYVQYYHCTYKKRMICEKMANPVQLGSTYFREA
- experimental-protocol: Octet BLI, mAb captured on FAB2G biosensor, antigen in solution
binders and their reported t½
API: value field is a number in min; no unit string.

// worked examples, t½ included
D2D88607-9226 (antibody, V domains shown, also called mAb_023) VH: QVQLQQWGAGLLKPSETLSLTCAVYGGSFSGYYWSWIRQPPGKGLEWIGEFNHSGGPNYNPSLKSRVTISTDTSNNQFSLKLSSVTAADTAVYYCARGTTGNYYYYMDVWGKGTTVTVSS VL: AIQMTQSPSSLSASVGDRVTITCRASQGIRNDLGWYQQKPGKAPKLLIYAASSLQSGVPSRFSGSGSGTDFTLTISSLQPEDFATYYCLQDYIYPPTFGPGTKLEIK = 16.5
D2D88607-14083 (antibody, V domains shown, also called mAb_017) VH: EVQLLESGGDLVQPGGSLRLSCAASGFTFSSYAMNWVRQAPGKGLEWVSAISGSGVFTYYADSVKGRFTISRDNSENTLYLQMNSLRAEDTAVYYCAKEMQQLIQGDLFDIWGQGTMVTVSS VL: EIVLTQSPATLSLSPGERATLSCGASQSVSNNYLAWYQQKPGLAPRLLIYDASSRATGIPDRFSGSGSGTDFTLTISRLEPEDFAVYYCQQYGSSHTFGQGTKLEIK = 18.6
D2AD89041-10444 (antibody, V domains shown, also called mAb_049) VH: EVQLLESGGGLVQPGGSLRLSCAASGFTFNNYVMAWVRQVPGKGLEWVSGISGSGLITSYAASVKDRFTISRDNSNNTVYLQMKSLRAEDTAVYFCAKEPHVLLDDYMDVWGKGTTVTVSS VL: EIVLTQSPATLSLSPGERATLSCGASQSVTSSYLAWYQQKPGLAPRLLIYDASNRATGIPDRFSGSGSGTDFTLTISRLEPEDFAVYYCQQYGRSLTFGGGTKVEIK = 0

We now examine a further binder.
Req: Which t½ is listed for D2AD88607-7048 (antibody, V domains shown, also called mAb_042) VH: EVQLVESGGGLVQPGGSLRLSCAASGFTFSSYDMHWVRQATGKGLEWVSAIGTAGDKYYLASVKGRFTISRENAKNSLYLQMNSLRAGDTAVYYCVRDSLTGPTVTPYMDVWGKGTTVTVSS VL: EIVLTQSPDFQSVTPKEKVTITCRASQSIGSGLHWYQQKPDQSPKLLIIYASQSISGVPSRFSGSGSGTDFTLTINSLEAEDAAAYYCHQSSSLPYTFGQGTKLEIK ?
Resp: 0.3

Entry source: patent US20250388680A1
